Target: Intestinal-type alkaline phosphatase (Homo sapiens) (UniProt P09923)
Sequence (P09923 whole entry, looked up): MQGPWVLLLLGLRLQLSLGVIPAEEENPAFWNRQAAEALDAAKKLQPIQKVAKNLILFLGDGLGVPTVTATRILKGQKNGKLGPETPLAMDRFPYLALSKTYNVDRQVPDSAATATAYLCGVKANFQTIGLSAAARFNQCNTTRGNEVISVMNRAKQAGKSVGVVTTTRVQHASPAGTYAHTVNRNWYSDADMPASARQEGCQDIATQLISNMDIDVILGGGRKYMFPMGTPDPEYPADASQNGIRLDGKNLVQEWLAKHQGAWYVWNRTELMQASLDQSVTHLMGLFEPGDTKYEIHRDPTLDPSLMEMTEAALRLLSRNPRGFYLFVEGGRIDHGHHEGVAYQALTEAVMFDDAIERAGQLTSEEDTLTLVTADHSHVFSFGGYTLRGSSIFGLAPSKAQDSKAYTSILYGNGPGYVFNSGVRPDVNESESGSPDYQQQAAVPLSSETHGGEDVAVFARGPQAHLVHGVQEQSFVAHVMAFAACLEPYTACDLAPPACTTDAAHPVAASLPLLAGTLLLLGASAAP
Experiment: enhancement of intestinal alkaline phosphatase activity – biochemical, luminescence, single concentration, uHTS hits, confirmation (AID 434926)
Settings: purified IAP, CDP-Star luminescence, 30 min; at 8.3 µM; hits give low values
The other results are listed elsewhere or left out.
# activation (%Activity, negative = activation) per entry
assay-readout: activation (%Activity, negative = activation) (%)

O=C(NCCN1CCOCC1)[C@H](Cc1ccccc1)N1C(=O)c2ccccc2C1=O ... -5.42
CC(=O)c1ccc(NC(=O)C2CCCN2S(=O)(=O)c2cccs2)cc1 (stereo unspecified) ... -85.1
O=C(Nc1ccon1)c1nc[nH]c1C(=O)NCc1ccccc1 ... 88.5
c1ccc2[nH]c(-c3nc4ccccc4[nH]3)nc2c1 ... 10.7
CN1/C(=c2/s/c(=C3/C(=O)N(c4ccccc4)NC3=Nc3ccccc3)n(C)c2=O)C(C)(C)c2ccccc21 ... -2.61
Cc1ccc2c(c1)nnc1nnc(SCC(=O)O)n12 ... 33.9
COc1cc(NC(=O)NCC2CCN(Cc3ccc(C)cc3)CC2)cc(OC)c1OC ... -1.35
COc1ccc2c(c1OC)C(=O)N(c1ncn[nH]1)C2 ... 12.6
O=c1c(/C=N/O)coc2ccc(Cl)cc12 ... -11.6
N#C/C(=C\c1ccc(O)c(O)c1)C(=O)NCc1ccccc1 ... -0.121
COc1cc(/C=C2/SC(=S)N(Cc3ccccc3)C2=O)cc(OC)c1O ... 3.41

---

Molecular target: Intestinal-type alkaline phosphatase (Homo sapiens) (UniProt P09923)
Experiment: enhancement of intestinal alkaline phosphatase activity – biochemical, luminescence, single concentration, uHTS hits, confirmation (AID 434926)
Conditions: purified IAP, CDP-Star luminescence, 30 min; at 8.3 µM
This is one part of the list. Active and inactive are the calls of the source.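 How the source made its calls: active means at least twofold enzyme activation in any of six single-dose repeats, which the averaged readout prints as negative percent; inactive means the rest.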
Labels: active, inactive

COc1ccc(CN2CCC(n3nccc3NC(=O)CCCc3ccccc3)CC2)cc1C ... active
Cc1cc(C)cc(NC(=O)NC2CCN(CC(=O)Nc3cccc(Cl)c3C)CC2)c1 ... inactive
COCCSc1nnc(NC(=O)CCS(=O)(=O)Cc2ccccc2)s1 ... inactive
CC(C)(C)OC(=O)NCCCCCNC(=O)c1[nH]cnc1C(=O)Nc1nccs1 ... inactive
CCOc1ccc(NC(=O)CSc2nncn2C)cc1 ... active
Cc1cccc(NS(=O)(=O)c2cccc(C(=O)NNC(=O)c3ccccc3O)c2)c1 ... inactive
CC(C)Oc1ccc(CCC(=O)NNC(=S)NCc2ccccc2)cc1 ... inactive
O=C(NNC(=S)Nc1ccccc1)c1cccc(S(=O)(=O)N2CCOCC2)c1 ... inactive
COc1ccc(C2=Nc3cc(C)ccc3OC2)cc1 ... inactive
Cc1c(NC(=O)CN(C)CC(=O)Nc2ccc(F)c(F)c2F)c(=O)n(-c2ccccc2)n1C ... inactive
CCN1/C(=C\c2ccc3ccccc3[n+]2CC)Sc2cc(C)ccc21 ... inactive
C[C@H](NC(=O)c1[nH]cnc1C(=O)Nc1nccs1)c1ccccc1 ... inactive
CCC(C(=O)Nc1ccc(C(C)C)cc1)c1ccccc1 (stereo not drawn) ... inactive
Oc1cccc(/C=N/Nc2ccc(Cl)nn2)c1O ... inactive
OC1CN=C2Sc3ccccc3N2C1 (stereo not drawn) ... active
OCCCN1c2ccccc2Nc2nnc(-c3ccccc3)cc21 ... inactive
COc1c(O)cc2oc(-c3ccc(O)c(O)c3)cc(=O)c2c1O ... inactive
OC(c1nc2ccc(F)cc2[nH]1)C(O)c1nc2ccc(F)cc2[nH]1 (stereo not drawn) ... inactive
